- System: Saccharomyces cerevisiae BY4741 SeMeCo community
- assayDetails: mean cell size (pixel area) (pixels); higher = larger cells
- experimentalSetup: 10 µM; 24 h; SM minimal medium
Where a name gives a salt, the structure may show the parent alone.

>  <compound>
CN(C)CCc1c[nH]c2ccc(CS(=O)(=O)N3CCCC3)cc12 [Almotriptan Malate]

>  <mean cell size>
12.4

$$$$
>  <compound>
CC(Cc1ccc(O)c(O)c1)C(C)Cc1ccc(O)c(O)c1 (stereo unspecified) [Nordihydroguaiaretic acid (NDGA)]

>  <mean cell size>
12.5

$$$$
>  <compound>
CCCCN1CCCC[C@H]1C(=O)Nc1c(C)cccc1C [Levobupivacaine HCl]

>  <mean cell size>
12.4

$$$$
>  <compound>
COc1ccc(CNc2nc(N3CCC[C@H]3CO)ncc2C(=O)NCc2ncccn2)cc1Cl [Avanafil]

>  <mean cell size>
12.5

$$$$
>  <compound>
Nc1nc(/C(=C/CC(=O)O)C(=O)N[C@@H]2C(=O)N3C(C(=O)O)=CCS[C@H]23)cs1 [Ceftibuten dihydrate]

>  <mean cell size>
12.6

$$$$
>  <compound>
CNS(=O)(=O)Cc1ccc2[nH]cc(CCN(C)C)c2c1 [Sumatriptan Succinate]

>  <mean cell size>
12.3

$$$$
>  <compound>
CNC1CCCN(c2c(F)cc3c(=O)c(C(=O)O)cn(C4CC4)c3c2OC)C1 (stereo unspecified) [Balofloxacin]

>  <mean cell size>
12.3

$$$$
>  <compound>
COC(=O)C1=C(C)NC(C)=C(C(=O)OC(C)C)C1c1cccc2nonc12 (stereo unspecified) [Isradipine]

>  <mean cell size>
12.5

$$$$
>  <compound>
CC1=CC[C@@](O)(C(C)C)CC1 [Terpinen-4-ol]

>  <mean cell size>
12.4

$$$$
>  <compound>
CCOc1cc(NC(C)=O)ccc1C(=O)OC [Ethopabate]

>  <mean cell size>
12.6

$$$$
>  <compound>
CC[C@@]1(O)C(=O)OCc2c1cc1n(c2=O)Cc2cc3cc(O)ccc3nc2-1 [(S)-10-Hydroxycamptothecin]

>  <mean cell size>
12.4

$$$$
>  <compound>
NS(=O)(=O)c1cc(C(=O)O)c(NCc2ccco2)cc1Cl [Furosemide]

>  <mean cell size>
12.5

$$$$
>  <compound>
C[N+](C)(C)CCOC(=O)CCC(=O)OCC[N+](C)(C)C [Succinylcholine Chloride Dihydrate]

>  <mean cell size>
12

$$$$
>  <compound>
CC[C@H]1OC(=O)[C@H](C)[C@@H](O[C@H]2C[C@@](C)(OC)[C@@H](O)[C@H](C)O2)[C@H](C)[C@@H](O[C@@H]2O[C@H](C)C[C@H](N(C)C)[C@H]2O)[C@](C)(O)C[C@@H](C)CN(C)[C@H](C)[C@@H](O)[C@]1(C)O [Azithromycin]

>  <mean cell size>
12.5

$$$$
>  <compound>
C=CC[N+]1([C@H]2C[C@H]3[C@@H]4CC[C@H]5C[C@H](O)[C@@H](N6CCOCC6)C[C@]5(C)[C@H]4CC[C@]3(C)[C@H]2OC(C)=O)CCCC1 [Rocuronium Bromide]

>  <mean cell size>
12.4

$$$$
>  <compound>
O=c1c(-c2ccc(O)cc2)coc2c([C@@H]3O[C@H](CO)[C@@H](O)[C@H](O)[C@H]3O)c(O)ccc12 [Puerarin]

>  <mean cell size>
12.6

$$$$
>  <compound>
CCCCCCCCc1ccc(CCC(N)(CO)CO)cc1 [Fingolimod]

>  <mean cell size>
12.1

$$$$
>  <compound>
OB1OCc2cc(F)ccc21 [Tavaborole (AN-2690)]

>  <mean cell size>
14

$$$$
>  <compound>
OC(CCN1CCCCC1)(c1ccccc1)C1CCCCC1 (stereo unspecified) [Trihexyphenidyl hydrochloride]

>  <mean cell size>
12.5

$$$$
>  <compound>
CN1C(C(=O)Nc2ccccn2)=C(O)c2sc(Cl)cc2S1(=O)=O [Lornoxicam]

>  <mean cell size>
12.1

$$$$
>  <compound>
CC[C@H]1OC(=O)[C@H](C)[C@@H](O[C@H]2C[C@@](C)(OC)[C@@H](O)[C@H](C)O2)[C@H](C)[C@@H](O[C@@H]2O[C@H](C)C[C@H](N(C)C)[C@H]2O)[C@](C)(O)C[C@@H](C)C(=O)[C@H](C)[C@@H](O)[C@]1(C)O [Erythromycin]

>  <mean cell size>
12.3

$$$$
>  <compound>
COc1nc2ccc(Br)cc2cc1[C@@H](c1ccccc1)[C@@](O)(CCN(C)C)c1cccc2ccccc12 [Bedaquiline fumarate]

>  <mean cell size>
11.2

$$$$
>  <compound>
CCOC(=O)C1=C(C)NC(C)=C(C(=O)OC)C1c1cccc([N+](=O)[O-])c1 (stereo unspecified) [Nitrendipine]

>  <mean cell size>
12.5

$$$$
>  <compound>
CC(NCCC(c1ccccc1)c1ccccc1)c1ccccc1 (stereo unspecified) [Fendiline hydrochloride]

>  <mean cell size>
12.1

$$$$
>  <compound>
COc1ccc2cc([C@H](C)C(=O)O)ccc2c1 [Naproxen]

>  <mean cell size>
13

$$$$
>  <compound>
CN(C/C=C/C#CC(C)(C)C)Cc1cccc2ccccc12 [Terbinafine HCl]

>  <mean cell size>
12.3

$$$$
>  <compound>
N[C@@H]1CONC1=O [D-Cycloserine]

>  <mean cell size>
11.8

$$$$
>  <compound>
CN(C)CCC[C@@]1(c2ccc(F)cc2)OCc2cc(C#N)ccc21 [Escitalopram Oxalate]

>  <mean cell size>
12.4

$$$$
>  <compound>
COCC(=O)Nc1cc(Sc2ccccc2)ccc1N=C(NC(=O)OC)NC(=O)OC [Febantel]

>  <mean cell size>
12.3

$$$$
>  <compound>
CCCNC(C)C(=O)Nc1ccccc1C (stereo unspecified) [Prilocaine hydrochloride]

>  <mean cell size>
12.3

$$$$
>  <compound>
CC(=O)O[C@H]1C[C@@]2(C)[C@@H](C[C@@H](O)[C@H]3[C@@]4(C)CC[C@@H](O)[C@@H](C)[C@@H]4CC[C@@]32C)/C1=C(\CCC=C(C)C)C(=O)O [Fusidine]

>  <mean cell size>
12.4

$$$$
